Source of measurements: ChEMBL document CHEMBL1135111

Test system: Candida albicans
Experiment: Compound was evaluated for antifungal activity as minimum cell growth inhibition against Candida albicans - 2005
Type: functional
Measured Parameter: MIC (µg/mL)
// return numeric value only (unit: µg/mL, not printed)

Some entries whose results are on file:
CO[C@H]1[C@@H]2O[C@@H]2[C@H](OCC23C[C@@H]4[C@H](C)CC[C@H]4C4(C=O)CC2C=C(C(C)C)C34C(=O)O)O[C@@H]1C (stereo not given in full) = 0.06
CO[C@H]1[C@H]2O[C@H]2[C@@H](OCC23C[C@@H]4[C@H](C)CC[C@H]4C4(C=O)CC2C=C(C(C)C)C34C(=O)O)O[C@@H]1C (stereo not given in full) = 4
CO[C@H]1[C@@H]2O[C@@H]2[C@H](OCC23C[C@@H]4[C@H](C)CC[C@H]4C4(C=O)CC2C=C(C(C)C)C34C(=O)O)O[C@@H]1CO (stereo not given in full) = 4

[ask] Entry C/C=C/C=C(/O[C@H]1[C@H](O)[C@H](OCC23C[C@@H]4[C@H](C)CC[C@H]4C4(C=O)CC2C=C(C(C)C)C34C(=O)O)O[C@H](C)[C@H]1O)C(=O)C(CC)CC (stereo not given in full) : reported MIC = ?
[reply] 0.015

[ask] Repeat for the following molecule: CO[C@H]1[C@@H]2O[C@@H]2[C@@H](OCC23C[C@@H]4[C@H](C)CC[C@H]4C4(C=O)CC2C=C(C(C)C)C34C(=O)O)O[C@@H]1C (stereo not given in full)
[reply] 4
